test system: SK-MEL-5 melanoma; assay: NCI-60 one-dose screen, 48 h (100 = growth as untreated, 0 = no growth, -100 = all killed); conditions: 10 µM unless noted
This is part of a sample that, as a whole, favours compounds with a hit. Of some 83,000 tested, about 20% had one in any assay.
experimental readout: growth (%)
Give bare numbers, in %.

CO[C@@H]1[C@H](OC(=O)NC(=O)CCl)CC[C@]2(CO2)[C@H]1[C@@]1(C)O[C@@H]1CC=C(C)C
55.4
O=S(=O)(F)c1ncnc2nc[nH]c12
96.2
CC(=O)Nc1ccc(C=C2C(=O)NC(=O)NC2=O)cc1
115
Cn1cnnc1[S-].[Au+].c1ccc([PH+](c2ccccc2)c2ccccc2)cc1
-9.96

Answer for every listed entry: what is its growth? The entries follow.
1. Nc1c(Br)cc2c3c(cccc13)-c1ccccc1-2
2. CN1C(=O)NC(=O)C(N=Nc2ccc(Cl)cc2)C1=O (stereo not drawn)
3. S=P(N1CCCCCC1)(N1CC1)N1CC1
4. Cc1cc(CCl)c(C)cc1CCl
5. CC1(C)N=C(N)N=C(N)N1c1ccc(OCCCCNC(=O)Nc2cccc(S(=O)(=O)F)c2)c(Cl)c1
6. ClCCN(CCCl)C(c1ccccc1)c1ccc(Cl)cc1 (stereo not drawn)
7. O=C(N/N=C/c1ccc(N(CCCl)CCCl)cc1)c1cc(=O)[nH]c(=O)[nH]1
8. C[CH2][Pb]([CH2]C)([CH2]C)[O]C(=O)c1ccc(N)cc1

Found:
[84.8, 96, 107, 70.1, 25.9, 54.9, 98.9, 39]

Answer for every listed entry: what is its growth? The entries follow.
1. [Cl][Hg][n]1cnc2c(Cl)c(Cl)c(Cl)cc21
2. O1[As]2O[As]3O[As]1O[As](O2)O3
3. NC(Cc1ccc2c(c1)OCO2)c1ccc2c(c1)OCO2 (stereo not drawn)
4. COc1cc(CNCCc2ccc(Cl)cc2)cc(OC)c1O
5. c1ccc(-c2ccc3ccccc3[o+]2)cc1

Found:
[102, -91.5, 103, 72.8, 88.8]

Answer for every listed entry: what is its growth? The entries follow.
1. CC(C)(C)N(Cc1ccccc1)N=O
2. CCC(CO)NC1CCCCC1 (stereo not drawn)
3. CC12CCC(=O)C=C1C(O)CC1C2CCC2(C)C(O)CCC12 (stereo not drawn)
4. COc1ccc(OC)c(/C=C(/C)[N+](=O)[O-])c1
5. NC(=O)SCC(=O)Nc1ccc([As](=O)(O)O)cc1

Found:
1: 99.1; 2: 93.4; 3: 98.6; 4: 64.6; 5: 102
